# TESTED_SYSTEM: Tryptase beta-1 (Homo sapiens, UniProt Q15661)
# Sequence (Q15661 whole entry): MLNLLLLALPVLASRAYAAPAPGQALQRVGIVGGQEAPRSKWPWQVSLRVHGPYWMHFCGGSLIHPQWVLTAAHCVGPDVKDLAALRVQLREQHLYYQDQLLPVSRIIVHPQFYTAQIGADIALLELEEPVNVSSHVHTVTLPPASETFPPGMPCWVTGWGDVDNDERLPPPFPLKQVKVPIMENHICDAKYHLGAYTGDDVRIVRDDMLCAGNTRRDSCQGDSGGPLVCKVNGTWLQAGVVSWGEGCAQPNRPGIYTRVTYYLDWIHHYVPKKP
// Ki lookup, one value per entry
READOUT: Ki

item_smiles=NCCCC[C@@H](NC(=O)[C@@H]1CCCN1C(=O)CCOCCOCCOCCOCCNC(=O)CCCC[C@@H]1SC[C@@H]2NC(=O)N[C@@H]21)P(=O)(Oc1ccccc1)Oc1ccccc1 tested_system="Tryptase beta-1 (Homo sapiens, UniProt Q15661)" readout=Ki result="6.2 µM"
item_smiles=NCCCC[C@@H](NC(=O)[C@H](CC(N)=O)NC(=O)CCOCCOCCOCCOCCNC(=O)CCCC[C@@H]1SC[C@@H]2NC(=O)N[C@@H]21)P(=O)(Oc1ccccc1)Oc1ccccc1 tested_system="Tryptase beta-1 (Homo sapiens, UniProt Q15661)" readout=Ki result="2.5 µM"

====

These records show pKi for Prothrombin (Homo sapiens, UniProt P00734).
pKi: −log10 of the molar value.
READOUT: pKi

item_smiles=NCCCC[C@@H](NC(=O)[C@H](CC(N)=O)NC(=O)CCOCCOCCOCCOCCNC(=O)CCCC[C@@H]1SC[C@@H]2NC(=O)N[C@@H]21)P(=O)(Oc1ccccc1)Oc1ccccc1 value_comparator=< result_number=4.00
item_smiles=NCCCC[C@@H](NC(=O)[C@@H]1CCCN1C(=O)CCOCCOCCOCCOCCNC(=O)CCCC[C@@H]1SC[C@@H]2NC(=O)N[C@@H]21)P(=O)(Oc1ccccc1)Oc1ccccc1 value_comparator== result_number=5.97

====

pKi: −log10 of the molar value.
Here we list compounds with their recorded pKi when tested on Plasminogen (Homo sapiens).
Sequence (P00747 97-580 limits assumed): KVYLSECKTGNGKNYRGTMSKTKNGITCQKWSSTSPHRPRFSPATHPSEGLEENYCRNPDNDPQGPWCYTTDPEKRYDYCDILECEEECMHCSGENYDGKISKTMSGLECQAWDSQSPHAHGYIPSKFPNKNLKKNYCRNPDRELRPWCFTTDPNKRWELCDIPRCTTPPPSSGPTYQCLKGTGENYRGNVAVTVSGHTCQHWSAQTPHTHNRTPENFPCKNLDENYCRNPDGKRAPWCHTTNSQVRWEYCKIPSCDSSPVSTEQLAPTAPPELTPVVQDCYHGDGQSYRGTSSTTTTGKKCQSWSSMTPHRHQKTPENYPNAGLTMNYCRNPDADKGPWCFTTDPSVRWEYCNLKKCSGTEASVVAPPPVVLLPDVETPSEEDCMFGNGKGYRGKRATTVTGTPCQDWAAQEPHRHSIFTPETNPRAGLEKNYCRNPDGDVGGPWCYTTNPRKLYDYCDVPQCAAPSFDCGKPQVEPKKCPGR
Sequence (P00747 581-810 limits assumed): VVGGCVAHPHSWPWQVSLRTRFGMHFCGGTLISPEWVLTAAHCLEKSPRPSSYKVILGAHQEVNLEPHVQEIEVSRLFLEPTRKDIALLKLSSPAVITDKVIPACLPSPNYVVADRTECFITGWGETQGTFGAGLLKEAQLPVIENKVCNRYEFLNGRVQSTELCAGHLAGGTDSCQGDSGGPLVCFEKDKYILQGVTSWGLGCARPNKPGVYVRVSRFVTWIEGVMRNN
READOUT: pKi

item_smiles=NCCCC[C@@H](NC(=O)[C@@H]1CCCN1C(=O)CCOCCOCCOCCOCCNC(=O)CCCC[C@@H]1SC[C@@H]2NC(=O)N[C@@H]21)P(=O)(Oc1ccccc1)Oc1ccccc1 result_number=5.54
item_smiles=NCCCC[C@@H](NC(=O)[C@H](CC(N)=O)NC(=O)CCOCCOCCOCCOCCNC(=O)CCCC[C@@H]1SC[C@@H]2NC(=O)N[C@@H]21)P(=O)(Oc1ccccc1)Oc1ccccc1 result_number=5.39
